All values here come from patent US20220177457A1.

Target: p27-KID (Homo sapiens)
Sequence (P46527 22-105): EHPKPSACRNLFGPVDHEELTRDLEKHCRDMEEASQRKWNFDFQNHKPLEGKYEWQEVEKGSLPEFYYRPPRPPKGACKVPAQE
Test: 2D 1H-15N HSQC NMR screening and titration of compounds into 15N-p27-KID
Conditions: read-out: Kd (from CSP); single-site binding model fitted to chemical shift perturbation; 298 K, pH 6.5
quantity-name: Kd (mM)
Dear colleague, please return just the value in mM, with no unit written.

In: Lab note: need Kd for "O=c1oc2cc(OCCO)ccc2c2c1CCCC2" on p27-KID (Homo sapiens), anyone have it?
Out: 4.8
